Reported GI50 values for a set of molecules
- System: IGROV-1
- Experimental protocol: NCI tumour cell line growth inhibition, 48 h
Activity calls are given as the source filed them. No stated cut-off is given here; in the data, active = GI50 up to about 1.1 µM and inactive = higher.

>  <Molecule>
CN(/N=C/c1ccnc2ccccc12)c1ccc(Cl)cc1[N+](=O)[O-]

>  <GI50>
> 100 µM (inactive)

$$$$
>  <Molecule>
CCOC(=O)/C(O)=C(/c1n[nH]c(=O)c2ccccc12)[N+](=O)[O-]

>  <GI50>
> 100 µM (inactive)

$$$$
>  <Molecule>
C=C(N=[N+]=[N-])c1cn(C2CC(O)C(CO)O2)c(=O)[nH]c1=O (stereo not given)

>  <GI50>
> 100 µM (inactive)

$$$$
>  <Molecule>
C[C@]12CC[C@H](O)CC1CCC[C@@H]2O (stereo not given in full)

>  <GI50>
> 100 µM (inactive)

$$$$
>  <Molecule>
CC(=O)O[C@H]1CC[C@@]2(C)C(=CC[C@@H]3[C@@H]2CC[C@]2(C)Nc4c(cnn4S(C)(=O)=O)C[C@@H]32)C1

>  <GI50>
97.1 µM (inactive)

$$$$
>  <Molecule>
CC1(C(O)c2ccccc2)CN(C(C)(C)C)C(=O)/C1=C\Sc1ccccc1 (stereo not given)

>  <GI50>
33.3 µM (inactive)

$$$$
>  <Molecule>
COc1cc2c(cc1O)C1C(O)C(O)C=C3CCN(C2)C31 (stereo not given)

>  <GI50>
2.74 µM (inactive)

$$$$
>  <Molecule>
CC(C)N(C(=O)C12C3C4C5(C(=O)O)C(C1C35I)C42C(=O)O)C(C)C (stereo not given)

>  <GI50>
> 100 µM (inactive)

$$$$
>  <Molecule>
Cc1nn(C(=O)c2ccc(Cl)cc2)c2c1C(c1ccc([N+](=O)[O-])cc1)SC(=N)N2 (stereo not given)

>  <GI50>
> 10 µM (inactive)

$$$$
>  <Molecule>
CCN(CC)Cc1ccc(C(=S)Nc2ccc(Cl)cc2)s1

>  <GI50>
11.4 µM (inactive)

$$$$
>  <Molecule>
Cc1ccc(/C=C2\CCCCC2=O)cc1

>  <GI50>
> 100 µM (inactive)

$$$$
>  <Molecule>
O=C(N/N=C(COc1ccc(Cl)cc1)\N=C\c1ccncc1)c1ccncc1

>  <GI50>
> 100 µM (inactive)

$$$$
>  <Molecule>
COc1ccc(/C=C/c2cc(OC)c(OCc3ccccc3)c(OC)c2)cc1

>  <GI50>
> 100 µM (inactive)

$$$$
>  <Molecule>
O=C1c2ccccc2CN1c1ccc(O)cc1

>  <GI50>
> 100 µM (inactive)

$$$$
>  <Molecule>
COc1ccc2ccccc2c1CN1CCOCCOCCN(Cc2c(OC)ccc3ccccc23)CCOCCOCC1

>  <GI50>
> 100 µM (inactive)

$$$$
>  <Molecule>
Cc1[nH]c2ccccc2c1/C=N/NC(=O)c1cccc(I)c1

>  <GI50>
17.7 µM (inactive)

$$$$
>  <Molecule>
COc1cc(C(=O)Nc2cc(C(N)=O)cc(OC)c2OC)cc(NC(=O)/C=C/c2ccccc2)c1OC

>  <GI50>
> 100 µM (inactive)

$$$$
>  <Molecule>
CC1(C)c2ccccc2N2C(c3ccccc3)=NOC21C (stereo not given)

>  <GI50>
> 100 µM (inactive)

$$$$
>  <Molecule>
O=C1C(c2c(O)[nH]c3ccc(Br)cc23)=Nc2ccccc21

>  <GI50>
0.562 µM (active)

$$$$
>  <Molecule>
CNc1ccc([S+]([O-])Nc2ccc(OC)cc2)cc1 (stereo not given)

>  <GI50>
11.4 µM (inactive)

$$$$
>  <Molecule>
CC(NC(=O)C(NC(=O)C(NC(=O)C(F)(F)F)C(C)C)C(C)C)C(=O)Oc1c(Cl)c(Cl)c(Cl)c(Cl)c1Cl (stereo not given)

>  <GI50>
> 100 µM (inactive)

$$$$
>  <Molecule>
CCOP(=O)(O)C(Nc1ccc(/N=N/c2ccccc2)cc1)c1ccc(C(Nc2ccc(/N=N/c3ccccc3)cc2)P(=O)(O)OCC)cc1 (stereo not given)

>  <GI50>
19.7 µM (inactive)

$$$$
>  <Molecule>
O/N=C1/Nc2cc(Cl)ccc2C(=S)N2CSCC12 (stereo not given)

>  <GI50>
> 100 µM (inactive)

$$$$
>  <Molecule>
COC(=O)C1=C(OC(=O)/C(=C/c2ccccc2)c2ccc(OC)cc2)C(C(=O)OC)[C@@]2(O)[C@@H](C(=O)OC)[C@H](C)C[C@@H]1[C@@H]2C(=O)OC (stereo not given in full)

>  <GI50>
55.7 µM (inactive)

$$$$
>  <Molecule>
COc1ccc2c(c1)[n+]([O-])c(C#N)c(N1CCN(c3ccc([N+](=O)[O-])cc3)CC1)[n+]2[O-]

>  <GI50>
1.49 µM (inactive)

$$$$
>  <Molecule>
CC[C@@]1(O)C(=O)OCc2c1cc1n(c2=O)Cc2c-1nc1ccccc1c2CC[Si](C)(C)C

>  <GI50>
0.0149 µM (active)

$$$$
>  <Molecule>
Nc1nc(N)c2nc(-c3ccco3)cnc2n1

>  <GI50>
43.1 µM (inactive)

$$$$
>  <Molecule>
OC1(c2ccc(Cl)cc2)c2c(c3ccccc3c3ccccc23)C2=NCCN21 (stereo not given)

>  <GI50>
3.96 µM (inactive)

$$$$
>  <Molecule>
CC(=O)c1ccc2c3c1[C@H]1O[C@H]1c1cccc(c1-3)[C@@H]1O[C@H]21

>  <GI50>
0.112 µM (active)

$$$$
>  <Molecule>
COC(=O)/C=C1\SC2(O\C1=N/c1ccccc1)C1CC3CC(C1)CC2C3 (stereo not given)

>  <GI50>
> 100 µM (inactive)

$$$$
>  <Molecule>
NS(=O)(=O)c1ccc(CNc2nc(-c3cccs3)nc3ccc(I)cc23)cc1

>  <GI50>
12.2 µM (inactive)

$$$$
>  <Molecule>
NC(=O)c1nc[nH]c1/N=N/SCC(N)C(=O)O (stereo not given)

>  <GI50>
12.8 µM (inactive)

$$$$
>  <Molecule>
CC[C@@]1(O)C(=O)OCc2c1cc1n(c2=O)Cc2c-1nc1ccccc1c2/C=N\NC(=O)C(N)Cc1c[nH]c2ccccc12 (stereo not given in full)

>  <GI50>
2.86 µM (inactive)

$$$$
>  <Molecule>
C=C1C(O)C[C@H](OC(C)=O)[C@]2(C)C1C(OC(C)=O)[C@]1(C(C)(C)O)CC(O)C(C)=C1[C@@H](OC(=O)c1ccccc1)C2OC(C)=O (stereo not given in full)

>  <GI50>
> 10 µM (inactive)

$$$$
>  <Molecule>
CC1(C(=O)O)CCCC1C(=O)O (stereo not given)

>  <GI50>
> 100 µM (inactive)

$$$$
>  <Molecule>
Cc1c(/C=N/N(C)C)oc2c1cc(O)c1ncccc12

>  <GI50>
14.3 µM (inactive)

$$$$
>  <Molecule>
COc1ccc(SCc2cc(OCc3ccccc3)c(OCc3ccccc3)c(OCc3ccccc3)c2)cc1

>  <GI50>
1.79 µM (inactive)

$$$$
>  <Molecule>
O=c1c2cc3c(=O)n(CCc4ccccc4CO)c(=O)c3cc2c(=O)n1CCc1ccccc1CO

>  <GI50>
> 100 µM (inactive)

$$$$
>  <Molecule>
COc1ccc2nc3n(c2c1)C(c1c(Cl)cccc1Cl)SC3 (stereo not given)

>  <GI50>
> 100 µM (inactive)

$$$$
>  <Molecule>
CC[C@@]1(OP(=O)(O)O)C(=O)OCc2c1cc1n(c2=O)Cc2cc3ccccc3nc2-1

>  <GI50>
0.311 µM (active)

$$$$
